Tested on: CWR22R
Experiment: Antiproliferative activity against human 22Rv1 cells assessed as inhibition of cell growth incubated for 72 hrs by MTS assay
Type: functional, cell-based
Conditions: 22Rv1, 72 h
I'd appreciate it if you could supply IC50 values for the items below.
Field: numeric (µM). Do not append units.

Fill: IC50 (CWR22R) for this compound CC(C)C(=O)c1ccc(C2Nc3ccc(S(=O)(=O)Nc4cccc(C(C)C)c4)cc3C3OCCC23)cc1 (configuration not stated)
2.1

Fill: IC50 (CWR22R) for this compound CCc1cccc(NS(=O)(=O)c2ccc3c(c2)C2OCCC2C(c2ccc(C(=O)C(C)C)cc2)N3)c1 (configuration not stated)
1.1

Fill: IC50 (CWR22R) for this compound CCC(=O)c1cccc(NS(=O)(=O)c2ccc3c(c2)C2OCCC2C(c2ccc(C(=O)C(C)C)cc2)N3)c1 (configuration not stated)
3.5

* * *

Test system: CWR22R
Assay: Antiproliferative activity against human 22Rv1 cells assessed as inhibition of cell growth incubated for 72 hrs by MTS assay
Type: functional, cell-based
Settings: 22Rv1, 72 h
I'd appreciate it if you could supply IC50 values for the items below.
Field: numeric (µM). Do not append units.

Let me know recorded IC50 for CC(C)C(=O)c1ccc(C2Nc3ccc(S(=O)(=O)Nc4ccc5c(c4)OCO5)cc3C3OCCC23)cc1 (stereo not drawn) , thanks.
7.9

Let me know recorded IC50 for CC(C)C(=O)c1ccc(C2Nc3ccc(S(=O)(=O)Nc4cccc(C(C)(C)C)c4)cc3C3OCCC23)cc1 (stereo not drawn) , thanks.
1.3

Let me know recorded IC50 for CC(=O)c1ccc(NS(=O)(=O)c2ccc3c(c2)C2OCCC2C(c2ccc(C(=O)C(C)C)cc2)N3)cc1 (stereo not drawn) , thanks.
3.3

Let me know recorded IC50 for `CC(C)[C@@H](CS(=O)(=O)C(C)C)N1C(=O)[C@@](C)(CC(=O)O)C[C@H](c2cccc(Cl)c2)[C@H]1c1ccc(Cl)cc1` , thanks.
0.3

* * *

I'd appreciate it if you could supply pIC50 values for the items below.
System: CWR22R
Test: Antiproliferative activity against human 22Rv1 cells assessed as inhibition of cell growth incubated for 72 hrs by MTS assay
Format: functional, cell-based
Settings: 22Rv1, 72 h
Quick note: pIC50 means taking -log10 of the concentration in moles per liter.

Fill: pIC50 (CWR22R) for this molecule Cc1ccc(NS(=O)(=O)c2ccc3c(c2)C2OCCC2C(c2ccc(C(=O)C(C)C)cc2)N3)cc1C (stereo not given)
5.28

Fill: pIC50 (CWR22R) for this molecule Cc1ccc(S(=O)(=O)Nc2ccc3c(c2)C2OCCC2C(c2ccc(C(=O)C(C)C)cc2)N3)cc1C (stereo not given)
5.40

Fill: pIC50 (CWR22R) for this molecule CC(C)C(=O)c1ccc(C2Nc3ccc(S(=O)(=O)Nc4cccc(N(C)C)c4)cc3C3OCCC23)cc1 (stereo not given)
6.15

* * *

Test system: CWR22R
Experiment: Antiproliferative activity against human 22Rv1 cells assessed as inhibition of cell growth incubated for 72 hrs by MTS assay
Type: functional, cell-based
Details: 22Rv1, 72 h
MEASURE: pIC50
Quick note: pIC50 means taking -log10 of the concentration in moles per liter.

Let me know recorded pIC50 for CC(=O)c1cccc(NS(=O)(=O)c2ccc3c(c2)C2OCCC2C(c2ccc(C(=O)C(C)C)cc2)N3)c1 (stereo not given) , thanks.
5.28

Let me know recorded pIC50 for CC(=O)c1cccc(S(=O)(=O)Nc2ccc3c(c2)C2OCCC2C(c2ccc(C(=O)C(C)C)cc2)N3)c1 (stereo not given) , thanks.
5.11

Let me know recorded pIC50 for CC(=O)c1cccc(NS(=O)(=O)c2ccc3c(c2)C2OCCC2C(c2ccc4c(c2)CCO4)N3)c1 (stereo not given) , thanks.
5.20

* * *

Assay: Antiproliferative activity against human EU-1 cells assessed as inhibition of cell growth incubated for 44 hrs by WST assay
Format: functional, cell-based
Details: EU-1, 44 h
MEASURE: IC50 (nM)
Field: numeric (nM). Do not append units.

Let me know recorded IC50 for `CC(C)[C@@H](CS(=O)(=O)C(C)C)N1C(=O)[C@@](C)(CC(=O)O)C[C@H](c2cccc(Cl)c2)[C@H]1c1ccc(Cl)cc1` , thanks.
900

Let me know recorded IC50 for Cc1cc(NS(=O)(=O)c2ccc3c(c2)C2OCCC2C(C2CCCCC2)N3)ccc1C(F)(F)F (centres undefined) , thanks.
3300

Let me know recorded IC50 for CC(=O)c1ccc(NS(=O)(=O)c2ccc3c(c2)C2OCCC2C(c2ccc(C(=O)C(C)C)cc2)N3)cc1 (centres undefined) , thanks.
1500

Let me know recorded IC50 for O=S(=O)(Nc1ccc2c(c1)CCCC2)c1ccc2c(c1)C1OCCC1C(C1CCCCC1)N2 (centres undefined) , thanks.
2300

Let me know recorded IC50 for Cc1ccc(S(=O)(=O)Nc2ccc3c(c2)C2OCCC2C(c2ccc(C(=O)C(C)C)cc2)N3)cc1C (centres undefined) , thanks.
600

Let me know recorded IC50 for CC(=O)c1cccc(NS(=O)(=O)c2ccc3c(c2)C2OCCC2C(c2cccc(C(C)=O)c2)N3)c1 (centres undefined) , thanks.
1000

Let me know recorded IC50 for CC1CCC(NS(=O)(=O)c2ccc3c(c2)C2OCCC2C(C2CCCCC2)N3)CC1 (centres undefined) , thanks.
1900

Let me know recorded IC50 for `CN[C@@H](C)C(=O)N[C@H](C(=O)N1CCC[C@H]1C(=O)Nc1snnc1-c1ccccc1)C1CCCCC1` , thanks.
800

Let me know recorded IC50 for CC(C)C(=O)c1ccc(C2Nc3ccc(S(=O)(=O)Nc4cccc(C(C)C)c4)cc3C3OCCC23)cc1 (centres undefined) , thanks.
6500

Let me know recorded IC50 for CC(=O)c1cccc(NS(=O)(=O)c2ccc3c(c2)C2OCCC2C(c2ccc(C(=O)C(C)C)cc2)N3)c1 (centres undefined) , thanks.
200

Let me know recorded IC50 for CC(C)C(=O)c1ccc(C2Nc3ccc(S(=O)(=O)Nc4ccc5c(c4)COC5=O)cc3C3OCCC23)cc1 (centres undefined) , thanks.
3800

Let me know recorded IC50 for CCc1cccc(NS(=O)(=O)c2ccc3c(c2)C2OCCC2C(c2ccc(C(=O)C(C)C)cc2)N3)c1 (centres undefined) , thanks.
2100

Let me know recorded IC50 for Cc1ccc(NS(=O)(=O)c2ccc3c(c2)C2OCCC2C(c2c[nH]c4ccccc24)N3)cc1C (centres undefined) , thanks.
9200

Let me know recorded IC50 for Cc1ccc(NS(=O)(=O)c2ccc3c(c2)C2OCCC2C(C2CCN(C(=O)OC(C)(C)C)CC2)N3)cc1C (centres undefined) , thanks.
1400

Let me know recorded IC50 for CC(=O)c1cccc(NS(=O)(=O)c2ccc3c(c2)C2OCCC2C(c2ccc(C(C)C)cc2)N3)c1 (centres undefined) , thanks.
600

Let me know recorded IC50 for CC(=O)c1cccc(NS(=O)(=O)c2ccc3c(c2)C2OCCC2C(c2ccc4c(c2)CCO4)N3)c1 (centres undefined) , thanks.
7200

Let me know recorded IC50 for CC(=O)c1cccc(S(=O)(=O)Nc2ccc3c(c2)C2OCCC2C(c2ccc(C(=O)C(C)C)cc2)N3)c1 (centres undefined) , thanks.
700

Let me know recorded IC50 for O=S(=O)(Nc1ccc(Cl)c(Cl)c1)c1ccc2c(c1)C1OCCC1C(C1CCCCC1)N2 (centres undefined) , thanks.
1800

Let me know recorded IC50 for Cc1ccc(NS(=O)(=O)c2ccc3c(c2)C2OCCC2C(C2CCCCC2)N3)cc1C (centres undefined) , thanks.
800

Let me know recorded IC50 for Cc1ccc(NS(=O)(=O)c2ccc3c(c2)C2OCCC2C(C2CCOCC2)N3)cc1C (centres undefined) , thanks.
1600

Let me know recorded IC50 for CC(C)C(=O)c1ccc(C2Nc3ccc(S(=O)(=O)Nc4ccc5c(c4)OCO5)cc3C3OCCC23)cc1 (centres undefined) , thanks.
5300

Let me know recorded IC50 for CC(C)C(=O)c1ccc(C2Nc3ccc(S(=O)(=O)Nc4cccc(C(C)(C)C)c4)cc3C3OCCC23)cc1 (centres undefined) , thanks.
6200

Let me know recorded IC50 for CC(=O)Nc1ccc(C2Nc3ccc(S(=O)(=O)Nc4ccc(C)c(C)c4)cc3C3OCCC23)cc1 (centres undefined) , thanks.
4500

Let me know recorded IC50 for Cc1ccc(NS(=O)(=O)c2ccc3c(c2)C2OCCC2C(c2ccc(C(=O)C(C)C)cc2)N3)cc1C (centres undefined) , thanks.
500

Let me know recorded IC50 for O=S(=O)(Nc1ccc(Br)c(Br)c1)c1ccc2c(c1)C1OCCC1C(C1CCCCC1)N2 (centres undefined) , thanks.
5100

Let me know recorded IC50 for CC(=O)c1cccc(NS(=O)(=O)c2ccc3c(c2)C2OCCC2C(C2CCCCC2)N3)c1 (centres undefined) , thanks.
1500

Let me know recorded IC50 for CC(C)C(=O)c1ccc(C2Nc3ccc(S(=O)(=O)Nc4cccc(N(C)C)c4)cc3C3OCCC23)cc1 (centres undefined) , thanks.
7500

Let me know recorded IC50 for CN(C)c1cccc(NS(=O)(=O)c2ccc3c(c2)C2OCCC2C(C2CCCCC2)N3)c1 (centres undefined) , thanks.
4000

Let me know recorded IC50 for CCC(=O)c1cccc(NS(=O)(=O)c2ccc3c(c2)C2OCCC2C(c2ccc(C(=O)C(C)C)cc2)N3)c1 (centres undefined) , thanks.
1500

Let me know recorded IC50 for CC(=O)c1cccc(NS(=O)(=O)c2ccc3c(c2)C2OCCC2C(c2ccccc2)N3)c1 (centres undefined) , thanks.
1300

Let me know recorded IC50 for O=S(=O)(Nc1ccccc1)c1ccc2c(c1)C1OCCC1C(C1CCCCC1)N2 (centres undefined) , thanks.
2600

These entries and their values trace back to ChEMBL document CHEMBL5321232.
